experiment: Cytotoxicity GC50; assay type: cell-based
measure: Cytotox GC50
Kindly write the number and append the unit.

compound | reported value
CCCc1nc(C)c2c(=O)[nH]c(-c3cc(S(=O)(=O)N(C)C(C)(C)C(=O)N(C)C)ccc3OCC)nn12 [Compound 3] | 100 µM
CCCc1nc(C)c2c(=O)[nH]c(-c3cc(S(=O)(=O)N(C)[C@H](C)C(=O)NC)ccc3OCC)nn12 [Compound 14] | 88.0 µM
CCCc1nc(C)c2c(=O)[nH]c(-c3cc(S(=O)(=O)NC(C)C(=O)N(C)C)ccc3OCC)nn12 (stereo not shown) [Compound 17] | 100 µM
CCCc1nc(C)c2c(=O)[nH]c(-c3cc(S(=O)(=O)N(C)[C@H](C)C(=O)N(C)C)ccc3OCC)nn12 [Compound 2] | 94.6 µM
CCCc1nc(C)c2c(=O)[nH]c(-c3cc(S(=O)(=O)NC(C)C(=O)N(C)C)ccc3OCC)nn12 (stereo not shown) [Compound 18] | 100 µM
CCCc1nc(C)c2c(=O)[nH]c(-c3cc(S(=O)(=O)N(C)C4(C(=O)N(C)C)CC4)ccc3OCC)nn12 [Compound 16] | 100 µM

Let us examine a further case.
**Q:** Entry CCCc1nc(C)c2c(=O)[nH]c(-c3cc(S(=O)(=O)N(C)[C@@H](C)C(=O)NC)ccc3OCC)nn12 [Compound 13] has what Cytotox GC50?
**A:** 94.0 µM

---

In this section we review reported Papp B→A values for a set of compounds.
experiment: Caco-2 permeability; assay type: in vitro ADME; conditions: human, BtoA
# value in ×10⁻⁶ cm/s; strip the unit string

Known Papp B→A results, listed for orientation:
compound | Papp B→A, ×10⁻⁶ cm/s
CCCc1nc(C)c2c(=O)[nH]c(-c3cc(S(=O)(=O)N(C)[C@@H](C)C(=O)N(C)C)ccc3OCC)nn12 [Compound 12] | 50.4
CCCc1nc(C)c2c(=O)[nH]c(-c3cc(S(=O)(=O)N4CCCC4C(=O)N(C)C)ccc3OCC)nn12 (stereo not shown) [Compound 5] | 60.2
CCCc1nc(C)c2c(=O)[nH]c(-c3cc(S(=O)(=O)N(C)[C@H](C)C(=O)N(C)C)ccc3OCC)nn12 [Compound 2] | 61.3

Let us examine a further case.
**Q:** Entry CCCc1nc(C)c2c(=O)[nH]c(-c3cc(S(=O)(=O)N(C)C(C)(C)C(=O)N(C)C)ccc3OCC)nn12 [Compound 3] has what Papp B→A?
**A:** 58.5

---

target: PDE-3; assay: Phosphodiesterase inhibition PDE-3
In this section we review reported pIC50 values for a set of compounds.
The meaning of pIC50 here: minus log10 of the concentration in molar units.

structure notation | pIC50
CCCc1nc(C)c2c(=O)[nH]c(-c3cc(S(=O)(=O)NC)ccc3OCC)nn12 | 6.00
CCCc1nc(C)c2c(=O)[nH]c(-c3cc(S(=O)(=O)N(C)CC(=O)N(C)C)ccc3OCC)nn12 | 6.01

Let us examine a further case.
**Q:** Entry `CCCc1nc(C)c2c(=O)[nH]c(-c3cc(S(=O)(=O)N(C)C(C)(C)C(=O)N(C)C)ccc3OCC)nn12` has what pIC50?
**A:** 6.39

---

In this section we review reported Papp values for a set of compounds.
assay: PAMPA permeability; format: in vitro ADME; conditions: PAMPA, Hex; read-out: PAMPA Hex
# value in ×10⁻⁶ cm/s; strip the unit string

compound | Papp / ×10⁻⁶ cm/s
CCCc1nc(C)c2c(=O)[nH]c(-c3cc(S(=O)(=O)N(C)CC(=O)N(C)C)ccc3OCC)nn12 | 5.49
CCCc1nc(C)c2c(=O)[nH]c(-c3cc(S(=O)(=O)N(C)CC(=O)N(C)CCOC)ccc3OCC)nn12 | 1.45
CCCc1nc(C)c2c(=O)[nH]c(-c3cc(S(=O)(=O)N(C)C(C)(C)C(=O)NC)ccc3OCC)nn12 | 0.25
CCCc1nc(C)c2c(=O)[nH]c(-c3cc(S(=O)(=O)N(C)C(C)(C)C(=O)N(C)C)ccc3OCC)nn12 | 9.11

**Q:** Entry CCCc1nc(C)c2c(=O)[nH]c(-c3cc(S(=O)(=O)NC(C)C(=O)N(C)C)ccc3OCC)nn12 (stereo not shown) has what Papp?
**A:** 0.26

**Q:** Input `CCCc1nc(C)c2c(=O)[nH]c(-c3cc(S(=O)(=O)NC)ccc3OCC)nn12`
**A:** 0.37

**Q:** Input `CCCc1nc(C)c2c(=O)[nH]c(-c3cc(S(=O)(=O)N(C)CC(=O)N4CCOCC4)ccc3OCC)nn12`
**A:** 0.78

**Q:** Input `CCCc1nc(C)c2c(=O)[nH]c(-c3cc(S(=O)(=O)N(C)CC(=O)N(C)CCN(C)C)ccc3OCC)nn12`
**A:** 0.03

**Q:** Input `CCCc1nc(C)c2c(=O)[nH]c(-c3cc(S(=O)(=O)N(C)CC(=O)N(C)CC(=O)N(C)C)ccc3OCC)nn12`
**A:** 0.47

**Q:** Input `CCCc1nc(C)c2c(=O)[nH]c(-c3cc(S(=O)(=O)N(C)[C@H](C)C(=O)NC)ccc3OCC)nn12`
**A:** 0.47

**Q:** Input `CCCc1nc(C)c2c(=O)[nH]c(-c3cc(S(=O)(=O)N(C)[C@@H](C)C(=O)NC)ccc3OCC)nn12`
**A:** 0.42

**Q:** Input `CCCc1nc(C)c2c(=O)[nH]c(-c3cc(S(=O)(=O)N(C)[C@H](C)C(=O)N(C)C)ccc3OCC)nn12`
**A:** 18.2

**Q:** Input `CCCc1nc(C)c2c(=O)[nH]c(-c3cc(S(=O)(=O)N(C)[C@@H](C)C(=O)N(C)C)ccc3OCC)nn12`
**A:** 13.9
